Read-out: Early growth response protein 1 (EGR1) transcription factor, EGR1 (gene 1958)
Assay: LTEA_HepaRG_EGR1: Life Technologies and Expression Analysis (LTEA) Assay for Early growth response protein 1 (EGR1) transcription factor using HepaRG (AID 2283490)
Details: mRNA level, 48 h; actives raise or lower the signal
Activity calls are given as the source filed them. The calls were made as follows: active = hit-call score of the fitted dose curve at least 0.9, where 1 is the maximum; inactive = score below 0.9.
Would you mind answering with one of these outcomes? active, inactive

## Input For `CCCCCCOC(=O)CC(CC(=O)OCCCCCC)(OC(=O)CCC)C(=O)OCCCCCC` , which call appears in the assay record?
## Output inactive

## Input For `CCOC(N)=O` , which call appears in the assay record?
## Output inactive

## Input For `Cc1nc(-c2ccccn2)ncc1C(=O)Nn1cc(C)c2cc(F)ccc21` , which call appears in the assay record?
## Output inactive

## Input For `OCC(CO)(CO)CO` , which call appears in the assay record?
## Output inactive

## Input For `OC(Cn1cncn1)(Cn1cncn1)c1ccc(F)cc1F` , which call appears in the assay record?
## Output inactive

## Input For `COCc1nnc(-c2ccc[n+]([O-])c2)n1-c1c(Cl)c(Cl)cc2[nH]c(=O)c(=O)[nH]c12` , which call appears in the assay record?
## Output inactive

## Input For `C[C@@H](Oc1ccc(CNC(=O)c2cccnc2Oc2ccc3c(c2)OCO3)c(F)c1)C(=O)O` , which call appears in the assay record?
## Output inactive

## Input For `CC(C)c1nnc2ccc(-c3ocnc3-c3cc(F)ccc3F)cn12` , which call appears in the assay record?
## Output active

## Input For `CCCCCCCCN(C)C` , which call appears in the assay record?
## Output inactive

## Input For `O=C(O)[C@H](O)[C@@H](O)C(=O)O` , which call appears in the assay record?
## Output inactive

* * *

Biological target: Cellular tumor antigen p53 (Homo sapiens) (UniProt P04637)
Sequence (P04637 whole entry, looked up): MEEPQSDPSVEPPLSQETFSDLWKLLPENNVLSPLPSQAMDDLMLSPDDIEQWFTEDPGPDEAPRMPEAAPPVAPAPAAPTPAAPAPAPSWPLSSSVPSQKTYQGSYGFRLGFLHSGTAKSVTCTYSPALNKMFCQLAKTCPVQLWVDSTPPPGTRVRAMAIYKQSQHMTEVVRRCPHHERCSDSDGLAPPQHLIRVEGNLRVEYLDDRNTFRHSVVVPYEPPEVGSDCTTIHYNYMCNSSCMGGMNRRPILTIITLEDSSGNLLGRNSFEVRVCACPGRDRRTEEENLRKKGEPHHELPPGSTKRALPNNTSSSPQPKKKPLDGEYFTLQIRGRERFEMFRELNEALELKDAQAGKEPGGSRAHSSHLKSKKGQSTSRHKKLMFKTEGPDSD
Experiment: TOX21_p53_BLA_p3_ratio: Tox21 HCT-116 p53 Agonism Beta-lactamase Assay, Ratio, Phase 3 (AID 2283596)
Records with an inconclusive call do not appear. The source made the active and inactive calls. Rule for the calls: active = hit-call score of the fitted dose curve at least 0.9, where 1 is the maximum; inconclusive = response in the unintended direction; inactive = score below 0.9.
Reported endpoint: outcome

[
  {
    "Compound structure string": "Cn1c(=O)c2[nH]cnc2n(C)c1=O",
    "Measured result": "inactive"
  },
  {
    "Compound structure string": "CCCCCCCCN(C)C",
    "Measured result": "inactive"
  },
  {
    "Compound structure string": "CCCCCCCCCCCCCCCCOS(=O)(=O)O",
    "Measured result": "inactive"
  }
]

* * *

Read-out: Urokinase-type plasminogen activator receptor (uPAR), PLAUR (gene 5329)
Assay: BSK_BE3C_uPAR: BioMAP Diversity Plus: BE3C Assay for Urokinase-type plasminogen activator receptor (uPAR) Biomarker Activity (AID 2283039)
Conditions: primary human bronchial epithelial cells; actives raise or lower the signal
Protocol: BSK_BE3C is a cell-based, multiplexed-readout assay that uses bronchial epithelial cell, a human lung primary cell, with measurements taken at 24 hours after chemical dosing in a 96-well plate.BSK_BE3CAR is an assay component measured in the BSK_BE3C assay. It measures uPAR antibody related to regulation of gene expression using ELISA technology.Data from the assay component BSK_BE3CAR was analyzed into 1 assay endpoint. […]
Calls of active or inactive are those of the source. Rule for the calls: active = hit-call score of the fitted dose curve at least 0.9, where 1 is the maximum; inactive = score below 0.9.
Would you mind answering with one of these outcomes? True (active), False (inactive)

## Input For `OCCNCCO` , which call appears in the assay record?
## Output False

## Input For `c1ccc2c(c1)-c1cccc3c1c-2cc1ccccc13` , which call appears in the assay record?
## Output False

## Input For `NC(=O)N(O)[C@@H]1COc2cc(OCc3ccccc3)ccc21` , which call appears in the assay record?
## Output False

## Input For `O=C(O)c1cccc(C(=O)O)c1` , which call appears in the assay record?
## Output False

## Input For `FC(F)(F)C(F)(F)C(F)(F)C(F)(F)C(F)(F)C(F)(F)I` , which call appears in the assay record?
## Output False

## Input For `Nc1ccn([C@@H]2O[C@H](CO)[C@@H](O)[C@@H]2O)c(=O)n1` , which call appears in the assay record?
## Output False

## Input For `NC(=O)N1c2ccccc2C=Cc2ccccc21` , which call appears in the assay record?
## Output False

## Input For `C[C@]12C=CC(=O)C=C1CC[C@H]1[C@@H]3C[C@@H](O)[C@](O)(C(=O)CO)[C@@]3(C)C[C@H](O)[C@@]12F` , which call appears in the assay record?
## Output False

## Input For `Cc1cccc(O)c1C` , which call appears in the assay record?
## Output False

## Input For `O=C1CN(N=Cc2ccc([N+](=O)[O-])o2)C(=O)N1` , which call appears in the assay record?
## Output False

## Input For `OCC(CO)(CO)CO` , which call appears in the assay record?
## Output False

## Input For `CC(=O)c1ccccc1` , which call appears in the assay record?
## Output False

## Input For `O=S(=O)(O)CCC(F)(F)C(F)(F)C(F)(F)C(F)(F)C(F)(F)C(F)(F)F` , which call appears in the assay record?
## Output False

## Input For `OC(Cn1cncn1)(Cn1cncn1)c1ccc(F)cc1F` , which call appears in the assay record?
## Output False

## Input For `CCCCCOC(C)=O` , which call appears in the assay record?
## Output False

## Input For `CCCc1ccccc1` , which call appears in the assay record?
## Output False

## Input For `CCCCOC(=O)c1ccccc1` , which call appears in the assay record?
## Output False

## Input For `CCCCCCCCCCCCCCCCOS(=O)(=O)O` , which call appears in the assay record?
## Output True

## Input For `COc1cc(C(C)C)c2c(c1)S(=O)(=O)N(COc1cc(=O)n3cccc(OCCN4CCCCC4)c3n1)C2=O` , which call appears in the assay record?
## Output False

## Input For `OC[C@H]1O[C@@](CO)(O[C@H]2O[C@H](CO)[C@@H](O)[C@H](O)[C@H]2O)[C@@H](O)[C@@H]1O` , which call appears in the assay record?
## Output False

## Input For `CCCCCCCCN(C)C` , which call appears in the assay record?
## Output False

## Input For `FC(F)=C(F)C(F)(F)C(F)(F)C(F)(F)C(F)(F)C(F)(F)C(F)(F)F` , which call appears in the assay record?
## Output False

## Input For `CCCC(CCC)C(=O)O` , which call appears in the assay record?
## Output False

## Input For `CC[C@H](C)C(=O)O[C@H]1C[C@H](O)C=C2C=C[C@H](C)[C@H](CC[C@@H](O)C[C@@H](O)CC(=O)O)[C@H]21` , which call appears in the assay record?
## Output False

## Input For `OC(O)(C(F)C(O)(O)C(F)(F)F)C(F)(F)F` , which call appears in the assay record?
## Output False

## Input For `OCCC(F)(F)C(F)(F)C(F)(F)C(F)(F)F` , which call appears in the assay record?
## Output False

## Input For CC(C)CC(C)O (centres undefined) , which call appears in the assay record?
## Output False

## Input For `COc1cc2c(c(OC)c1OC)-c1ccc(OC)c(=O)cc1[C@@H](NC(C)=O)CC2` , which call appears in the assay record?
## Output False

## Input For CCCCCCCC1CCC(=O)O1 (centres undefined) , which call appears in the assay record?
## Output False

## Input For `COCc1nnc(-c2ccc[n+]([O-])c2)n1-c1c(Cl)c(Cl)cc2[nH]c(=O)c(=O)[nH]c12` , which call appears in the assay record?
## Output False

## Input For `Cn1c(=O)c2[nH]cnc2n(C)c1=O` , which call appears in the assay record?
## Output False

## Input For `Cc1nccn1-c1ccc(Sc2cccc(C3(C(N)=O)CCOCC3)c2)cc1` , which call appears in the assay record?
## Output True

## Input For `CC(C)c1nnc2ccc(-c3ocnc3-c3cc(F)ccc3F)cn12` , which call appears in the assay record?
## Output False

## Input For `CCCOc1ccc(S(=O)(=O)N2CCN(CC)CC2)cc1-c1nc2c(CC)n(Cc3ccccn3)nc2c(=O)[nH]1` , which call appears in the assay record?
## Output False

## Input For `O=C(NO)C1(NS(=O)(=O)c2ccc(Oc3ccc(F)cc3)cc2)CCOCC1` , which call appears in the assay record?
## Output False

## Input For `Cn1cc[nH]c1=S` , which call appears in the assay record?
## Output False

## Input For `CCOC(N)=O` , which call appears in the assay record?
## Output False

## Input For FC(F)C(F)(F)COCC1CO1 (centres undefined) , which call appears in the assay record?
## Output False

## Input For `OCc1c[nH]c2ccccc12` , which call appears in the assay record?
## Output False

## Input For CC(C)CCCCCCOC(=O)C1CCCCC1C(=O)OCCCCCCC(C)C (centres undefined) , which call appears in the assay record?
## Output False

## Input For `Cc1ccc(S(=O)(=O)NC(=O)NN2CCCCCC2)cc1` , which call appears in the assay record?
## Output False

## Input For `CC1(C)C(=O)N(Cl)C(=O)N1Cl` , which call appears in the assay record?
## Output False

## Input For `CC(C)C(=O)Nc1ccc([N+](=O)[O-])c(C(F)(F)F)c1` , which call appears in the assay record?
## Output False

## Input For `NNC(=O)c1ccncc1` , which call appears in the assay record?
## Output False
